Target: Cytochrome P450 2C19 (Homo sapiens) (UniProt P33261)
Sequence (P33261 whole entry, looked up): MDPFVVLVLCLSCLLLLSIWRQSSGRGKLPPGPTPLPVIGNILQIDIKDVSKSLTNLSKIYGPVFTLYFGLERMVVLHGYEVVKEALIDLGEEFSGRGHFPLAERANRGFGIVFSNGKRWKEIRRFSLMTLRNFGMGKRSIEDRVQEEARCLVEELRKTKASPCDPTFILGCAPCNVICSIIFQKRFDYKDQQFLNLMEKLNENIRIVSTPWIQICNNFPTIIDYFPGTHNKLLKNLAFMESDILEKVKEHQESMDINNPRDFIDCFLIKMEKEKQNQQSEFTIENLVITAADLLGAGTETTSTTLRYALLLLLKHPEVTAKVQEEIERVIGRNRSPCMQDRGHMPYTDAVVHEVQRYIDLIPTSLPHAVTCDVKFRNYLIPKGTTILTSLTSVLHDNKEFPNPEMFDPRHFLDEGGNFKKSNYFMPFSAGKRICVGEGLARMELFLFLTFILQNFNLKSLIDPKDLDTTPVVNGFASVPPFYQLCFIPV
Assay: Cytochrome panel assay with activity outcomes
Conditions: recombinant CYP, pro-luciferin dealkylation, luminescence, p450-cyp2c19; series mostly up to 57.1 µM
Experimental: The P450 gene superfamily is involved in the metabolism and clearance of xenobiotics. This assay used various human CYP P450 isozymes to measure the dealkylation of various pro-luciferin substrates to luciferin. The luciferin is then measured by luminescence after the addition of a luciferase detection reagent. […] Inhibitors and some substrates limit the production of luciferin, and decrease measured luminescence. […] 8, Detection, 1 sec, ViewLux luminescent read […]
About 5,800 (36%) of roughly 16,000 compounds were called active. Another 23% or so got no clear call; they are omitted. The call rests on the fitted dose curve; in most records, active means well fitted curve in the direction sought with a large enough effect; inconclusive means small, poorly fitted or top-dose-only effect, or effect the other way; inactive means no such curve, though single readings can be large or run the other way. The list shows a part of the results.
// classify into active, inactive

Known results for compounds:
compound="CC1=C(C(N)=O)C(c2ccccn2)n2nc(SCc3ccccc3Cl)nc2N1 (configuration not stated)" class_label=inactive
compound=COc1ccc(Oc2ncc3nc(-c4cccs4)c(=O)n(C)c3n2)cc1 class_label=inactive
compound=Nc1ncnc2c1ncn2C1CCCC1 class_label=inactive
compound=O=S1(=O)C=C(N2CCOCC2)c2ccccc21 class_label=inactive
compound=N#CCCn1c(=O)c(-c2ccc(F)cc2)nc2cnc(OCc3ccccc3)nc21 class_label=inactive
compound="Cc1ccc(NC2=NC(c3ccccc3)n3c(nc(C)cc3=O)N2)c(C)c1 (configuration not stated)" class_label=active

Now examine the next entry.
Hello, I am checking results. What call was entered for CSc1nc2n(n1)C(c1cccc(F)c1)C(C(=O)Nc1ccc(C)cc1C)=C(C)N2 (configuration not stated) ?
inactive

###

Target: Cytochrome P450 2C19 (Homo sapiens) (UniProt P33261)
Test: Cytochrome panel assay with activity outcomes
Settings: recombinant CYP, pro-luciferin dealkylation, luminescence, p450-cyp2c19; series mostly up to 57.1 µM
In all, about 16,000 compounds went through this assay and about 5,800 (36%) were called active. Not shown: some 23% with an inconclusive outcome. Some of the results follow.
PARAMETER: AC50

molecular_string=CCOC(=O)c1c(C)nc2sc3c(=O)n(-c4ccc(C)cc4)cnc3c2c1-c1ccc(OC)cc1 parameter=AC50 data_value="1260 nM (active)"
molecular_string=COc1ccc(-n2c(=O)c(-c3ccc(F)cc3)nc3cncnc32)cc1 parameter=AC50 data_value=inactive
molecular_string=O=C(C/C=N/OCc1ccc(Cl)cc1Cl)c1ccc(Cl)cc1 parameter=AC50 data_value="794 nM (active)"
molecular_string=Cc1ccnn2cc3c(=O)n(C)c(=O)n(C)c3c12 parameter=AC50 data_value=inactive
molecular_string=CCN(CC)CC#CCC(C)(c1ccccc1)c1ccccc1 parameter=AC50 data_value="447 nM (active)"

Please look at CCN(CC)CCOC(=O)C(c1ccccc1)c1ccccc1 and tell me its recorded AC50 on Cytochrome P450 2C19 (Homo sapiens) (UniProt P33261).
inactive

Please look at NC(N)=NC(N)=Nc1cccc(Cl)c1 and tell me its recorded AC50 on Cytochrome P450 2C19 (Homo sapiens) (UniProt P33261).
inactive

Please look at COc1ccc(CCNc2nc(-c3cccnc3)cs2)cc1OC and tell me its recorded AC50 on Cytochrome P450 2C19 (Homo sapiens) (UniProt P33261).
1410 nM (active)

Please look at Cn1c(=O)c(-c2ccc(F)cc2)nc2cnc(Oc3ccccc3)nc21 and tell me its recorded AC50 on Cytochrome P450 2C19 (Homo sapiens) (UniProt P33261).
inactive

Please look at CCOC(=O)c1c(C)nc2sc3c(=O)n(-c4ccc(C(C)=O)cc4)nnc3c2c1-c1ccc(Cl)cc1 and tell me its recorded AC50 on Cytochrome P450 2C19 (Homo sapiens) (UniProt P33261).
inactive

Please look at Cc1ccc(-c2csc(N3CCC(NS(=O)(=O)c4ccc5c(c4)OCCO5)CC3)n2)cc1 and tell me its recorded AC50 on Cytochrome P450 2C19 (Homo sapiens) (UniProt P33261).
3160 nM (active)
